# experiment: yeast display, Sf9 membrane polyspecificity reagent, FACS + sequencing; frameworks hold sequencing errors
measuredMetric: polyreactivity (PSR sort gate)

sequenceRecord	recordedValue
QVQLVESGGGLVQAGGSLRLSCAASGSTFFPYAMGWYRQAPGKERELVATINYSGGGTYYADSVKGRFTISRDNAKNTVYLQMNSLKPEDTAVYYCAKTLARFDRGYYWGQGTQVTVSS	low polyreactivity
QVQLVESGGGLVQAGGSLRLSCAASGFTFPWYAMGWYRQAPGKERELVASISYRGDSTYYSDSVKGRFTISRDNAKNTVYLQMNSLKPEDTAVYYCADDYLWYNYAGQVDHDYDYWGQGTQVTVSS	low polyreactivity

Values were extracted from the nanobody polyreactivity screen of Harvey et al. (2022).
